Catalogue of polymerase ribozyme fitness (log ratio) values
B1: TPR t1 (parent)
chain: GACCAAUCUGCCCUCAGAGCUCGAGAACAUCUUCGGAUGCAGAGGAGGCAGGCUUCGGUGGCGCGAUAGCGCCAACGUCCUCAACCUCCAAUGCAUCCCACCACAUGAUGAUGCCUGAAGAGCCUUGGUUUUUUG

# Variants of: B1
# PROCEDURE_SUMMARY: polymerase ribozyme fitness, log enrichment relative to wild type (log ratio); higher = more active; in vitro selection for triplet polymerase activity
Just the number.

Recorded polymerase ribozyme fitness (log ratio), per entry:
GACCAAUCUGCCCUCAAAGCUCGAGAACAUCUUCGGAUGCAGAGGAGGCAGGCUUCGGUGGCGCGAUAGCGCCAACGUCCUCAACCUCCCAUGCAUCCCAACACAUGAUGAUGGCUGAAGAGCCUUGGUUUUUUG :: -5.04
GACCAAUCUGCCCUCAGAGCUCGAGAACAUCUUCGGAUGCAGAGGAGGCAGGCUUCGGUGUCGCGAUAGCGCCAACGUCCUCAACCUCCAAUGCAUCCCACCACAUGAUGAUGCCUGAAGAGCCUUGGUUUUUUG :: 0.14
GACCAAUCUGCCCUCAGAGCUCGAGAACAUCUUCGGAUGCAGAGGAGGCAGGCUUCGGUGGCGCGAUAGCGCCAACGUCCUCAACCUCCAAUGCAUCCCACCGCAUGAUGAGGCCUGAAGAGCCUUGGUUUUUUG :: -4.71
GACCAAUCUGCCCUCAGAGCUCGAGAACAUCUUCGCAUGCAGAGGAGGCAGGCUUCGGUGGCGCGAUAACGCCAACGUCCUCAACCUCCAAUGCAUCCCACCACAUGAUGAGGCCUAAAGAGCCUUGGUUUUUUG :: -6.31
GACCAAUCUGCCCUCAGAGCUCGAGAACAUCUUCAGAUGCAGAGGAGGCAGGGUUCGGUGGUGCGAUAGCGCCAACCUCCUCACCCUCCAAUGCAUCCCACCACAUGAUGAUGCCUGAAGAGCGUUGGUUUUUUC :: -3.97

Look at this variant and give its reported polymerase ribozyme fitness (log ratio). GACCAAUCUGCCCUCAGAGCUCGAGAACAUCUUCGGAUGCAGAGGAGGCAGGCUUCGAUGGCGCGAUAGCGCCAACGUCCUCAAUCUCCAAUGCAUCCCACCACAUGAUGAUGCCUGAAGAGCCUUGGUUUUUUG
-1.88

Look at this variant and give its reported polymerase ribozyme fitness (log ratio). GACCAAUCUGCCCUCAGAGCUCGAGAACAUCUUCGGAUGCAGAGGAGGCAGGCUUAGGUGGCGCGAUAGCGCCAACGUCCUCAACCUCCAAUGCAUCCCACCACAUGAUGAUGCCUGAAGAGCCUUGGUUUAUUG
0.197

Look at this variant and give its reported polymerase ribozyme fitness (log ratio). GACCAAUCUGCCCUCAGAGCUCGAGAACAUCUUCGGAUGCAUAGGAGGCACGCUUCGGUGGCGCGAUAGCGCCAACGUCCUCAACCUCCAAUGCAUCCCACCACAUGAUGAUGCCUGAAGAGCCUUGGUUUUUUG
-6.75

Look at this variant and give its reported polymerase ribozyme fitness (log ratio). GACCAAUCUGCCCUCAGAGCGCGAGAACAUCUUCGGAUGCAGAGGAGGCAGGCUUCGGUGCCGCGAUAGCGCCAACGUCCUCAACCACCAAUGCAUCCCACCACAUGAUGAUGCCUGAAGAGCCUUGGUUUUGUU
-3.09

Look at this variant and give its reported polymerase ribozyme fitness (log ratio). GACCAAUCUGCUCUCAGAGCUCGAGAACAUCUUCGGAUGCAUAGGAGGCAGGCUUCGGUGGCGCGAUAGCGCCAACUUCCUCAACCUCCAAUGCAUCCCACCACAUGAUGAUGCCUUAAGAGCCUCGGUUUUUUG
-1.93

Look at this variant and give its reported polymerase ribozyme fitness (log ratio). GACCAAUCUCCCCUCAGAGCUCGAGAACAUCUUCGGAUGCAGAGGAGGCAGGCUUCGGUGGCGCGAUAGCGCCAACGUCCUCAACCACCAAUGCAUCCCACCACAUGAUGAUGCCUGAAGAGCCUUGGUUUUUUG
-0.978

Look at this variant and give its reported polymerase ribozyme fitness (log ratio). GACCAAUCUGCCCUCAGAGCUCGAGAACAUCUUCGGAUGCAGAGGAGGCAGGCUUCGGUGGCGCGAUAGCGCCAACGUCCUCAACCUCCAAUGCAUUCCACCACAUGAUGAUGCCUGAAGAGGCUAGGUUUUUUG
0.329

Look at this variant and give its reported polymerase ribozyme fitness (log ratio). GUCCAAUCUGCACUCAGAGCUCGAGAACAUCUUCGGAUGCAGAGGAGGCAGGCUUCGGUGGCUCGAUAGCGCCAACGUCCUCAACCUCCAAUGCAUCCCACCAGAUGACGAUGCCUGAAGAGCCUUGGUUUUUUG
-6.12

Look at this variant and give its reported polymerase ribozyme fitness (log ratio). GACCAAUCUGCCCUCAGAGCUCGAGAACAUCUUCGGAUGCAGAGGAGGCAGGCUUCUGUGGCCCGAUAGCGCCAACGUCCUCAACCUCCAAUGCAUCCCACCACAUGAUGAUGCCUGAAGAGCCUUGGUUUUUUG
-1.73

Data origin, for the record: the RNAGym collection of RNA variant scans (doi:10.1073/pnas.2313332121)
